Molecular target: T1, N-terminal ectodomain of human GLP1R expressed with a myc-myc hexahistidine tag (human, UniProt P43220 24-145, limits assumed)
T1 construct: extracellular domain; also called hGLP1R-MMH; hGLP1R.mmh
T1 sequence (P43220 24-145 limits assumed): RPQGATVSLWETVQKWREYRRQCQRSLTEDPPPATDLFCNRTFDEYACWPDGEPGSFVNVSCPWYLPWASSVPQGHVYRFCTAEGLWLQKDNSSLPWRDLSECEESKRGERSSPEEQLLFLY
Assay: SPR, captured via anti-hFc, 25 C
In this section we review reported 90 nM hGLP1R.mmh Bound (RU) values for a set of binders.
measured quantity: 90 nM hGLP1R.mmh Bound (RU)

binder: H2aM30341N (antibody, V domains shown, parent of H4H30341N (REGN9278 without Q-tag); also called parent of REGN9278) VH: QVQLQQWGAGLLKPSETLSLTCAVYGGSFSGYYWSWIRQPPGKGLEWIGEINHAGSTNYNPSLKSRITISVDTSKNQFSLKLSSVTAADTAVYYCARGWYYGSGSYHRNWFDPWGQGTLVTVSS VL: EIVLTQSPGTLSLSPGERATLSCRASQSVYYSYLAWYQQKPGQAPRLLIYGASNRATGIPDRFSGSGSGTDFTLTISRLEPEDFAVYYCQQYGNSPWTFGQGTKVEIK
measured quantity: 90 nM hGLP1R.mmh Bound (RU)
recorded measurement: 48.4

binder: H1M30345N (antibody, V domains shown) VH: EVQLVESGGGLVKPGGSLRLSCAASGFIFSRYSMNWVRQAPGKGLEWVSSMSSNSKNTYYADSVKGRFTISRDNAKNSLFLQMNTLRAEDTAVYYCARDGYTLRAFDIWGQGTMVTVSS VL: EIVLTQSPGTLSLSPGERDTLSCRASQSIAGRYVAWYQQKPGQAPRLLIYGASSRATGIPDRFSGSGSGTDFTLTISRLEPEDFAVYYCQQYGSSPWTFGQGTKVEIK
measured quantity: 90 nM hGLP1R.mmh Bound (RU)
recorded measurement: 61.7

binder: REGN8052 (antibody, V domains shown, parental antibody without Q-tag; also called parent of REGN8072) VH: QVQLVESGGGVVQPARSLRLSCAASGFAFSRSAMHWVRQAPGKGLEWVAVISYDGSNKYYTDSVKGRFTISRDNSKNTLYLQMNTLRAEDTALYYCAKMYTTMDSFDYWGQGTLVTVSS VL: DIQLTQSPSFLSASVGDRVTITCWASQGISSYLAWYQQKPGKAPKLLIYAASTLQSGVPSRFSGSGSGTEFTLTISSLQPEDFALYYCQQLNSYPRTFGQGTKVEIK
measured quantity: 90 nM hGLP1R.mmh Bound (RU)
recorded measurement: 98.7

binder: REGN8051 (antibody, V domains shown, parental antibody without Q-tag; also called parent of REGN8070) VH: QVQLVESGGGVGQPGRSLRLSCAASGFTFSRNAMHWVRQAPGKGLEWVAVISYDGSNKHYADSVKGRFTISRDNSKNTLYLEMNSLRVEDTAVYYCAKGGIPFDYWGQGTLVTVSS VL: DIVMTQSPLSSPVTLGQPASISCRSSQSLVHFDGNTYLSWLHQRPGQPPRLLIYKISNRFSGVPDRFSGSGAGTDFTLKISRVEPEDVGVYYCMHATQFPYTFGQGTKLEIK
measured quantity: 90 nM hGLP1R.mmh Bound (RU)
recorded measurement: 73.7
